Test system: Foxtail, Giant (giant foxtail, Setaria faberi)
Test Name: Test A postemergence, Foxtail, Giant
Type: in vivo
Measurement Setup: Postemergence, 125 g ai/ha; visual injury approx. 10 days; 0 to 100 scale (0 no effect, 100 complete control)
Experimental Endpoint: Plant response rating, Foxtail, Giant

[[record]]
compound = "COCC1(COC)CC(c2cc(NS(=O)(=O)C(F)(F)F)c(C)cc2C)=NO1 [Compound 104]"
assay_target = "Foxtail, Giant (giant foxtail, Setaria faberi)"
value = 20

[[record]]
compound = "COc1cc(-c2cc(NS(=O)(=O)C(F)(F)F)c(C)cc2C)c(=O)n(C)n1 [Compound 70]"
assay_target = "Foxtail, Giant (giant foxtail, Setaria faberi)"
value = 0

[[record]]
compound = "Cc1cc(Cl)c(NS(=O)(=O)C(F)(F)F)cc1C(=O)N(C)C [Compound 23]"
assay_target = "Foxtail, Giant (giant foxtail, Setaria faberi)"
value = 50

[[record]]
compound = "Cc1ccc(-c2ccnn(C)c2=O)cc1N(S(=O)(=O)C(F)(F)F)S(=O)(=O)C(F)(F)F [Compound 66]"
assay_target = "Foxtail, Giant (giant foxtail, Setaria faberi)"
value = 0

[[record]]
compound = "CCn1cc(-c2cc(N(S(=O)(=O)C(F)(F)F)S(=O)(=O)C(F)(F)F)c(C)cc2C)c(=O)n(C)c1=O [Compound 30]"
assay_target = "Foxtail, Giant (giant foxtail, Setaria faberi)"
value = 70

[[record]]
compound = "Cc1c(NS(=O)(=O)C(F)(F)F)cc(C(=O)N2CCC3(CC2)OCCCO3)c(C)c1F [Compound 129]"
assay_target = "Foxtail, Giant (giant foxtail, Setaria faberi)"
value = 0

[[record]]
compound = "CC(=O)N(c1cc(-c2ccnn(C)c2=O)c(C)cc1C)S(=O)(=O)C(F)(F)F [Compound 56]"
assay_target = "Foxtail, Giant (giant foxtail, Setaria faberi)"
value = 90


----------
Tested on: Ryegrass, Italian (Italian ryegrass, Lolium multiflorum)
Test Name: Test A1 preemergence, Ryegrass, Italian
Assay type: in vivo
Measurement Setup: 31 g ai/ha, 0 to 100 scale (0 no effect, 100 complete control)
Experimental Endpoint: Plant response rating, Ryegrass, Italian

[[record]]
compound = "Cc1cc(C)c(N(COC(=O)OC(C)(C)C)S(=O)(=O)C(F)(F)F)cc1C1=NOC2CCCC12 (centres unmarked) [Compound 316]"
experimental_endpoint = "Plant response rating, Ryegrass, Italian"
value = 30

[[record]]
compound = "Cc1cc(C2CC2)c(C2=NOC3CCCC23)cc1N(COC(=O)C(C)(C)C)S(=O)(=O)C(F)(F)F (centres unmarked) [Compound 355]"
experimental_endpoint = "Plant response rating, Ryegrass, Italian"
value = 20

[[record]]
compound = "Cc1cc(C)c(N2CC3(CCCCC3)CC2=O)cc1NS(=O)(=O)C(F)(F)F [Compound 392]"
experimental_endpoint = "Plant response rating, Ryegrass, Italian"
value = 0

[[record]]
compound = "Cc1cc(C)c(N(COC(=O)C(C)(C)C)S(=O)(=O)C(F)(F)F)cc1C(=O)N1CCOCC1 [Compound 362]"
experimental_endpoint = "Plant response rating, Ryegrass, Italian"
value = 30

[[record]]
compound = "CCc1cc(C)c(N(COC(=O)C(C)(C)C)S(=O)(=O)C(F)(F)F)cc1C1=NOC2CCCC12 (centres unmarked) [Compound 378]"
experimental_endpoint = "Plant response rating, Ryegrass, Italian"
value = 0

[[record]]
compound = "CCOC1CC(c2cc(NS(=O)(=O)C(F)(F)F)c(C)cc2C)=NO1 (centres unmarked) [Compound 318]"
experimental_endpoint = "Plant response rating, Ryegrass, Italian"
value = 50

[[record]]
compound = "Cc1cc(C)c(N(COC(=O)C(C)(C)C)S(=O)(=O)C(F)(F)F)cc1N1CCC2(CCC(C)CC2)C1=O (centres unmarked) [Compound 401]"
experimental_endpoint = "Plant response rating, Ryegrass, Italian"
value = 0

[[record]]
compound = "Cc1cc(Br)c(NS(=O)(=O)C(F)(F)F)cc1C1=NOC2(CCCC2)C1 [Compound 309]"
experimental_endpoint = "Plant response rating, Ryegrass, Italian"
value = 60

[[record]]
compound = "Cc1cc(C)c(C2=NOC(C(C)C)C2)cc1NS(=O)(=O)C(F)(F)F (centres unmarked) [Compound 381]"
experimental_endpoint = "Plant response rating, Ryegrass, Italian"
value = 50

[[record]]
compound = "COc1cc(C)c(NS(=O)(=O)C(F)(F)F)cc1C1=NOC2CCCC12 (centres unmarked) [Compound 312]"
experimental_endpoint = "Plant response rating, Ryegrass, Italian"
value = 0

[[record]]
compound = "Cc1c(C(=O)N2CCCCC2)cc(N(COC(=O)C(C)(C)C)S(=O)(=O)C(F)(F)F)c(C)c1C [Compound 329]"
experimental_endpoint = "Plant response rating, Ryegrass, Italian"
value = 0

[[record]]
compound = "Cc1c(NS(=O)(=O)C(F)(F)F)cc(C2=NOC3(CCCC3)C2)c(C)c1C [Compound 380]"
experimental_endpoint = "Plant response rating, Ryegrass, Italian"
value = 60

[[record]]
compound = "Cc1cc(C)c(N(S(=O)(=O)C(F)(F)F)S(=O)(=O)C(F)(F)F)cc1C1=NOC2COCC12 (centres unmarked) [Compound 296]"
experimental_endpoint = "Plant response rating, Ryegrass, Italian"
value = 0

[[record]]
compound = "Cc1c(NS(=O)(=O)C(F)(F)F)cc(C(=O)N(C)C)c(C)c1C [Compound 288]"
experimental_endpoint = "Plant response rating, Ryegrass, Italian"
value = 0

